tested_system: UniProt:P20309
procedure_summary: In vitro functional assay of muscarinic acetylcholine receptor activity, M3
Assay type: cell-based
experimental_setup: antagonist IC50 at M3; read-out: M3 IC50
value_type: IC50

# lookup: IC50 of N#Cc1ccc(C2=CC3CCC2CN3C(=O)CCS(=O)(=O)c2cccc3ncsc23)nc1 (centres unmarked)
1 to 10 µM

What do you get for O=C(CCS(=O)(=O)c1cccc2ncsc12)N1CCN(c2ccc(Cl)cn2)CC1 ?
1 to 10 µM

What would you report for O=C(CCOCc1cccc2ncccc12)N1C[C@H]2CC[C@@H](C1)N2c1ccc(F)cn1 ?
> 10 µM

Also O=C(CCS(=O)(=O)c1cccc2ncsc12)N1C[C@H]2CC[C@@H](C1)N2c1ccncc1F ?
0.1 to 1 µM

Try this compound next: Cc1cc(N2C3CCC2CN(C(=O)[C@H]2C[C@H](Oc4cccc5ncsc45)C2)C3)ccn1
> 10 µM

Next up: COc1cnc2cccc(CNCCC(=O)N3CC4CCC(C3)N4c3ccc(Cl)cn3)c2c1
> 10 µM

Try this compound too: C[C@@H]1CN(c2ccncc2Cl)CCN1C(=O)CCS(=O)(=O)c1cccc2ncsc12
> 10 µM

Moving on to N#Cc1ccc(N2CC3CCC2CN3C(=O)CCS(=O)(=O)c2cccc3ncsc23)nc1 (centres unmarked)
0.1 to 1 µM

###

Recorded pIC50 by entry
tested_system: human M1 receptor (Homo sapiens, UniProt P11229)
Sequence (P11229 1-460): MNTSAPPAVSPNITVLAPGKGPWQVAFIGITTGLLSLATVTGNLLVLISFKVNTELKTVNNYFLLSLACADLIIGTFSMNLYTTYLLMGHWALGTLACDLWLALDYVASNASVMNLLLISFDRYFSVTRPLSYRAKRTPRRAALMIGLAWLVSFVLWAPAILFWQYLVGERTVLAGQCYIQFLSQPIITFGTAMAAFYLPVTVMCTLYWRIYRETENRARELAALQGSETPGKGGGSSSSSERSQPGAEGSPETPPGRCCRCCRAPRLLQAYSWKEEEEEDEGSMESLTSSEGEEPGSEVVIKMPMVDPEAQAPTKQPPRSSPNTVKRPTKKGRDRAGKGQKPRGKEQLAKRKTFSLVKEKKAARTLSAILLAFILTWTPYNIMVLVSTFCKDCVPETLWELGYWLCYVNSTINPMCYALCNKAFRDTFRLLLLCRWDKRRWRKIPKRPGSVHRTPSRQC
procedure_summary: In vitro functional assay of muscarinic acetylcholine receptor activity (aequorin calcium flux, antagonist mode vs EC80 acetylcholine), M1
Assay type: cell-based
pIC50: −log10 of the molar value.

INSERT INTO measurements (compound, value_type, result) VALUES
  ('N#Cc1ccc(N2C3CCC2CN(C(=O)C(F)(F)CNCc2cccc4ncsc24)C3)nc1 [Example 158]', 'pIC50', '6.00 to 7.00');

What value of pIC50 on human M1 receptor (Homo sapiens, UniProt P11229) does O=C(CCNCc1cccn2nccc12)N1CC2CCC(C1)N2c1ccc(Cl)cn1 [Example 163] have?
6.00 to 7.00

Cc1cc(C#N)cnc1N1CC2CCC(C1)N2C(=O)CCNCc1cccc2ncsc12 [Example 161] ?
6.00 to 7.00

O=C(CCNCc1cccc2ncnn12)N1CC2CCC(C1)N2c1ccc(Br)cn1 [Example 156] ?
6.00 to 7.00

Next: N#Cc1ccc(N2C3CCC2CN(C(=O)COCCc2cccc4ncnn24)C3)nc1 [Example 183]
> 7.00

Same read-out for N#Cc1ccc(N2[C@@H]3CC[C@H]2CN(C(=O)CCOCc2cccc4ncccc24)C3)nc1 [Example 40] ?
> 7.00

Next entry: O=C(CCS(=O)(=O)c1cccc2ncsc12)N1CC2CCC(C1)N2c1ccc(C(F)(F)F)cn1 [Example 147]
> 7.00

Now try N#Cc1ccc(N2C3CCC2CN(C(=O)COCCc2cccc4nccnc24)C3)nc1 [Example 43] .
6.00 to 7.00

Next: N#Cc1cc(N2C3CCC2CN(C(=O)CCNCc2c(F)ccc4nccn24)C3)ccc1F [Example 131]
6.00 to 7.00

###

tested_system: M3 (Homo sapiens, UniProt P20309)
Sequence (P20309 whole entry): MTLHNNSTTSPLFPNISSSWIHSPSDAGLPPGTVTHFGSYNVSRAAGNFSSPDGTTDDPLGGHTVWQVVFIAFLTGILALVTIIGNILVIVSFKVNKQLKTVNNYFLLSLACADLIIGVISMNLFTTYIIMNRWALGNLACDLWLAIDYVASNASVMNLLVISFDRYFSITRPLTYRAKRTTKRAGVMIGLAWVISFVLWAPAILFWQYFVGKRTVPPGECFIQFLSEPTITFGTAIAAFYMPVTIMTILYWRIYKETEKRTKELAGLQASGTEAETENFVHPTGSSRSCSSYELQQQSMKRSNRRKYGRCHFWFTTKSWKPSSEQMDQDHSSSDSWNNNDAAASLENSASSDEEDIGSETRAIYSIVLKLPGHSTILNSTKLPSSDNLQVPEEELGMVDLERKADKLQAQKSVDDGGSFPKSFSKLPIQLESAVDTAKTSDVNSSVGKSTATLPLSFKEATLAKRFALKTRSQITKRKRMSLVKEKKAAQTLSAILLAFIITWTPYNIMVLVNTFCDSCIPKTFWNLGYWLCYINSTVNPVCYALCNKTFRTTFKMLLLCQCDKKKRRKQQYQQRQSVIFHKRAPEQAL
procedure_summary: In vitro functional assay of muscarinic acetylcholine receptor activity, M3
Type: cell-based
experimental_setup: antagonist IC50 at M3; read-out: M3 IC50
Documented IC50 across a set of molecules

Solved cases (5 shown):
INSERT INTO measurements (molecule, tested_system, result) VALUES
  ('O=C(COCc1cccc2cnccc12)N1C[C@H]2CC[C@@H](C1)N2c1ccc(F)cn1', 'M3 (Homo sapiens, UniProt P20309)', '> 10 µM'),
  ('N#Cc1ccc(N2C3CCC2CN(C(=O)CCOCc2cccc4ncc(C(F)(F)F)n24)C3)nc1', 'M3 (Homo sapiens, UniProt P20309)', '> 10 µM'),
  ('Cc1nc2cccc(S(=O)(=O)CCCC(=O)N3CCN(c4ncc(F)cc4C)C[C@@H]3C)c2o1', 'M3 (Homo sapiens, UniProt P20309)', '> 10 µM'),
  ('O=C(CCCc1cccc2ncccc12)N1CC2CC1CN2c1ccncc1 (centres unmarked)', 'M3 (Homo sapiens, UniProt P20309)', '1 to 10 µM'),
  ('Cc1cc(F)cnc1N1CCN(C(=O)CCCc2cccc3ncncc23)[C@@H](C)C1', 'M3 (Homo sapiens, UniProt P20309)', '1 to 10 µM');

Read the next record carefully.
Please look up its IC50: N#Cc1ccc(N2C3CCC2CN(C(=O)COCCc2cccn4ncnc24)C3)nc1
> 10 µM

###

tested_system: human M1 receptor (Homo sapiens)
procedure_summary: In vitro functional assay of muscarinic acetylcholine receptor activity (aequorin calcium flux, antagonist mode vs EC80 acetylcholine), M1
Format: cell-based
experimental_setup: CHO-K1 cells stably expressing human M1 receptor with Aequorin; decrease in EC80 acetylcholine response; read-out: M1 IC50
Description: CHO-K1 cells stably expressing human M1 receptor with Aequorin (Perkin Elmer) were grown in F12 media, 10% FBS with 0.4 mg/mL geneticin and […]. Cells were grown to confluence and frozen down to be assayed at a later date. […] Calcium flux was measured using the FlexStation 3 (Molecular Devices). […] Antagonist activity was analyzed as a concentration dependent decrease in the EC80 acetylcholine response. […] The IC50 of the compounds was calculated from the dose response curve.
pIC50: −log10 of the molar value.
Each entry below carries its reported pIC50.

Some solved cases for reference:
INSERT INTO measurements (compound, result) VALUES
  ('C[C@H]1CN(c2cnccc2Cl)CCN1C(=O)CCS(=O)(=O)c1cccc2ncsc12', '6.00 to 7.00'),
  ('CC1CN(c2ccc(C#N)cn2)[C@H](C)CN1C(=O)CCS(=O)(=O)c1cccc2ncsc12 (some centres unmarked)', '6.00 to 7.00'),
  ('O=C(C1CN(Cc2cccc3ncsc23)C1)N1C[C@H]2CC[C@@H](C1)N2c1ccncc1F', '5.00 to 6.00'),
  ('C[C@H]1CN(c2ccc(C#N)nc2)CCN1C(=O)CCS(=O)(=O)c1cccc2ncsc12', '6.00 to 7.00'),
  ('Cc1cc(C#N)cnc1N1CCN(C(=O)CCS(=O)(=O)c2cccc3ncsc23)[C@@H](C)C1', '> 7.00');

Find the recorded pIC50 belonging to N#Cc1ccc(N2CCN(C(=O)CCS(=O)(=O)c3cccc4ncsc34)CC2)nc1 and report it.
> 7.00

Lookup O=C(CCNCc1c(F)ccc2nccn12)N1CC2CCC(C1)N2c1ccc(C2CC2)cn1
5.00 to 6.00

###

tested_system: human M1 receptor (Homo sapiens, UniProt P11229)
Sequence (P11229 1-460): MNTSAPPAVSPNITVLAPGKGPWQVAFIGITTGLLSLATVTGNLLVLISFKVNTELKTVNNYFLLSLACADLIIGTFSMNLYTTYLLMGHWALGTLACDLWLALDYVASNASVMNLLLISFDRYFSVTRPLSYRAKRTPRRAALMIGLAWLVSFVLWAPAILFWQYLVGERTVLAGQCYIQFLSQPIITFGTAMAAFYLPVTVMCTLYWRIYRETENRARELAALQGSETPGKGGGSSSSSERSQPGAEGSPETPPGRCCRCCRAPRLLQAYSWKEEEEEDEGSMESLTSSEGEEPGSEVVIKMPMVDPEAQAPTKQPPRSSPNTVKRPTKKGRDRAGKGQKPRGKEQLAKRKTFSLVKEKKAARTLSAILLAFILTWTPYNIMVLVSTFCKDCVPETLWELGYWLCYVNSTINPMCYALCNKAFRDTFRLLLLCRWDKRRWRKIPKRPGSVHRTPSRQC
procedure_summary: In vitro functional assay of muscarinic acetylcholine receptor activity (aequorin calcium flux, antagonist mode vs EC80 acetylcholine), M1
Type: cell-based
value_type: IC50

INSERT INTO measurements (substance_smiles, result) VALUES
  ('N#Cc1ccc(N2C3CCC2CN(C(=O)CNCCc2cccc4ncsc24)C3)nc1', '100 to 1000 nM'),
  ('CN(CCC(=O)N1CC2CCC(C1)N2c1ccc(C#N)cn1)Cc1cccc2ncnn12', '100 to 1000 nM'),
  ('COc1cnc2cccc(CNCCC(=O)N3CC4CCC(C3)N4c3ccc(Cl)cn3)c2c1', '100 to 1000 nM'),
  ('N#Cc1ccc(N2CC3CCC(C2)N3C(=O)CCS(=O)(=O)c2cccc3ncsc23)nc1', '< 100 nM'),
  ('N#Cc1ccc(N2C3CCC2CN(C(=O)CCN(Cc2cccc4ncnn24)C2COC2)C3)nc1', '100 to 1000 nM'),
  ('N#Cc1ccc(N2C3CCC2CN(C(=O)CCNCc2c(F)ccc4nccn24)C3)nc1', '< 100 nM'),
  ('N#Cc1ccc(N2C3CCC2CN(C(=O)CCCc2cccn4ncnc24)C3)nc1', '< 100 nM');

Next compound, please.
Can you share its IC50? I mean this compound: Cc1ccc2ncnn2c1CNCCC(=O)N1CC2CCC(C1)N2c1ccc(C#N)cn1
100 to 1000 nM

Where these numbers come from: patent US11512090B2
